Values compiled from ChEMBL document CHEMBL1131287.

This listing pairs compounds with measured Ki.
# experimental-target: Somatostatin receptor type 4 (Homo sapiens, UniProt P31391)
# Sequence (P31391 whole entry): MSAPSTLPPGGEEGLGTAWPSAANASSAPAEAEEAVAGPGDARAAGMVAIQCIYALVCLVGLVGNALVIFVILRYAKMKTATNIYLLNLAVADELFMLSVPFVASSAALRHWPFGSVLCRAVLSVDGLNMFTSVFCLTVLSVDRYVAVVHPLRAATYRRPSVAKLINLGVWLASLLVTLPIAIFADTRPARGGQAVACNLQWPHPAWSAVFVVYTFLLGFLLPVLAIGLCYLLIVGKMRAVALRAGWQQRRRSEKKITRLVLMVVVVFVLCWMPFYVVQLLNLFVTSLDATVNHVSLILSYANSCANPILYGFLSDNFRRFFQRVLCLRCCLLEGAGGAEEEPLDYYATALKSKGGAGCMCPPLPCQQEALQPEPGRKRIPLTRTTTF
# method: In vitro inhibition of radioligand binding to human somatostatin receptor (hsst4) expressed in CHO-K1 cells.
# Format: cell-based
# condition: cho-k1

>>> recorded_result("C[C@H](c1ccccc1)N1CC(=O)N[C@@H](Cc2ccccc2)C(=O)N[C@H](Cc2c[nH]c3ccccc23)C(=O)N[C@@H](CCCCN)C(=O)N[C@@H]([C@@H](C)O)C(=O)N[C@@H](Cc2ccccc2)C1=O")
"> 1000 nM"
>>> recorded_result("C[C@@H](O)[C@@H]1NC(=O)[C@H](CCCCN)NC(=O)[C@@H](Cc2c[nH]c3ccccc23)NC(=O)[C@H](Cc2ccccc2)NC(=O)CN(Cc2ccccc2)C(=O)[C@H](Cc2ccccc2)NC1=O")
"> 1000 nM"

Turning to the following compound.
Query: Query (compound): `C[C@@H](O)[C@@H]1NC(=O)[C@H](CCCCN)NC(=O)[C@@H](Cc2c[nH]c3ccccc23)NC(=O)[C@H](Cc2ccccc2)NC(=O)CN([C@@H](C)c2ccccc2)C(=O)[C@H](Cc2ccccc2)NC1=O` ; field requested: Ki
Response: 987 nM
